Where these numbers come from: ChEMBL document CHEMBL1137357

Target: Vitamin D3 receptor (Homo sapiens) (UniProt P11473)
Sequence (whole entry): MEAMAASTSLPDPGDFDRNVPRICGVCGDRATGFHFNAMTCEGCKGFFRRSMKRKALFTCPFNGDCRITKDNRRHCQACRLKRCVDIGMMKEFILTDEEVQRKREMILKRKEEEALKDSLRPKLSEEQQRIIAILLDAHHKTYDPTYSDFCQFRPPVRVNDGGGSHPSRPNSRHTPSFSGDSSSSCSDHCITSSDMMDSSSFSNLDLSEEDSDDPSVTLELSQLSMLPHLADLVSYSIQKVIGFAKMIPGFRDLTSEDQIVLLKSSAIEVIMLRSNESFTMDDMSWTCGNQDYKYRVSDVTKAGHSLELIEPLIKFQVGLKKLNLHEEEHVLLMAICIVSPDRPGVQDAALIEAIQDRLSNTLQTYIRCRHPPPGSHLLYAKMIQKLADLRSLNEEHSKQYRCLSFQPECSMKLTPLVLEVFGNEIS
Assay: Antagonist activity against 1-alpha,25-dihydroxy vitamin D3-induced HL60 cell differentiation by NBT reduction method relative to TEI-9647
Format: functional, cell-based
Parameters: scale not given: the % may be the effect or the level left
Conditions: HL-60
reportedEndpoint: Activity (%)

Would you please look over these solved cases?
So what's the measured Activity for this one? "C=C1/C(=C\C=C2/CCC[C@]3(C)[C@@H]([C@H](C)C[C@H]4OC(=O)C(=C)[C@@H]4CC(C)C)CC[C@@H]23)C[C@@H](O)[C@H](CCCO)[C@@H]1O" 32

Can you look up the measured Activity of "C=C1/C(=C\C=C2/CCC[C@]3(C)[C@@H]([C@H](C)C[C@H]4OC(=O)C(=C)[C@@H]4CC)CC[C@@H]23)C[C@@H](O)[C@H](C)[C@@H]1O" for me? 18

May I ask what Activity has been recorded for "C=C1/C(=C\C=C2/CCC[C@]3(C)[C@@H]([C@H](C)C[C@H]4OC(=O)C(=C)[C@@H]4C)CC[C@@H]23)C[C@@H](O)[C@H](OCCCO)[C@@H]1O" ? 12

Look up Activity: "C=C1/C(=C\C=C2/CCC[C@]3(C)[C@@H]([C@H](C)C[C@H]4OC(=O)C(=C)[C@@H]4CCCC)CC[C@@H]23)C[C@@H](O)C[C@@H]1O" 4

Need Activity, item "C=C1/C(=C\C=C2/CCC[C@]3(C)[C@@H]([C@H](C)C[C@@H]4OC(=O)C(=C)[C@H]4CCCC)CC[C@@H]23)C[C@@H](O)[C@H](CCCO)[C@@H]1O" 122

I have this compound here, "C=C1/C(=C\C=C2/CCC[C@]3(C)[C@@H]([C@H](C)C[C@@H]4OC(=O)C(=C)[C@@H]4CCCC)CC[C@@H]23)C[C@@H](O)C[C@@H]1O" , and I need its recorded Activity. 179

Requested read-out: Activity. Entry: "C=C1C[C@H](C[C@@H](C)[C@H]2CC[C@H]3/C(=C/C=C4/C[C@@H](O)[C@H](C)[C@H](O)C4=C)CCC[C@]23C)OC1=O" 1020

Dear colleague, I am looking for the recorded Activity of the following compound: "C=C1C[C@@H](C[C@@H](C)[C@H]2CC[C@H]3/C(=C/C=C4/C[C@@H](O)[C@H](C)[C@H](O)C4=C)CCC[C@]23C)OC1=O" 38

Suppose we examine the compound "C=C1/C(=C\C=C2/CCC[C@]3(C)[C@@H]([C@H](C)C[C@H]4OC(=O)C(=C)[C@H]4CCCC)CC[C@@H]23)C[C@@H](O)[C@H](C)[C@@H]1O" ; what Activity value has been reported? 102

What value of Activity has been reported for the following compound? "C=C1/C(=C\C=C2/CCC[C@]3(C)[C@@H]([C@H](C)C[C@@H]4OC(=O)C(=C)[C@@H]4CC)CC[C@@H]23)C[C@@H](O)C[C@@H]1O" 345

1 = C=C1/C(=C\C=C2/CCC[C@]3(C)[C@@H]([C@H](C)C[C@H]4OC(=O)C(=C)[C@H]4CCC)CC[C@@H]23)C[C@@H](O)[C@H](CCCO)[C@@H]1O
2 = C=C1/C(=C\C=C2/CCC[C@]3(C)[C@@H]([C@H](C)C[C@@H]4OC(=O)C(=C)[C@@H]4C)CC[C@@H]23)C[C@@H](O)[C@H](C)[C@@H]1O
3 = C=C1/C(=C\C=C2/CCC[C@]3(C)[C@@H]([C@H](C)C[C@@H]4OC(=O)C(=C)[C@H]4CC)CC[C@@H]23)C[C@@H](O)[C@H](C)[C@@H]1O
4 = C=C1/C(=C\C=C2/CCC[C@]3(C)[C@@H]([C@H](C)C[C@H]4OC(=O)C(=C)[C@H]4CCC)CC[C@@H]23)C[C@@H](O)[C@H](C)[C@@H]1O
5 = C=C1C(=O)O[C@@H](C[C@@H](C)[C@H]2CC[C@H]3/C(=C/C=C4/C[C@@H](O)[C@H](C)[C@H](O)C4=C)CCC[C@]23C)[C@@H]1C
List by increasing Activity. Rank them, then answer with their labels in that order. 1, 4, 3, 2, 5

A = C=C1/C(=C\C=C2/CCC[C@]3(C)[C@@H]([C@H](C)C[C@@H]4OC(=O)C(=C)[C@H]4CCCC)CC[C@@H]23)C[C@@H](O)[C@H](OCCCO)[C@@H]1O
B = C=C1C(=O)O[C@@H](C[C@@H](C)[C@H]2CC[C@H]3/C(=C/C=C4/C[C@@H](O)C[C@H](O)C4=C)CCC[C@]23C)[C@@H]1CCCC
Higher Activity between A and B ? Respond using the label that marks the chosen record. A
(A: 205%, B: 58%)

a = C=C1/C(=C\C=C2/CCC[C@]3(C)[C@@H]([C@H](C)C[C@H]4OC(=O)C(=C)[C@@H]4C)CC[C@@H]23)C[C@@H](O)[C@H](C)[C@@H]1O
b = C=C1/C(=C\C=C2/CCC[C@]3(C)[C@@H]([C@H](C)C[C@H]4OC(=O)C(=C)[C@@H]4CCC)CC[C@@H]23)C[C@@H](O)C[C@@H]1O
Hi, I'm comparing two records. Which one has the lower Activity, a or b ? In your reply, give the label of the chosen option. b
(b: 8%, a: 85%)

P = C=C1/C(=C\C=C2/CCC[C@]3(C)[C@@H]([C@H](C)C[C@@H]4OC(=O)C(=C)[C@H]4CC(C)C)CC[C@@H]23)C[C@@H](O)[C@H](C)[C@@H]1O
Q = C=C1/C(=C\C=C2/CCC[C@]3(C)[C@@H]([C@H](C)C[C@H]4OC(=O)C(=C)[C@@H]4CC)CC[C@@H]23)C[C@@H](O)[C@H](CCCO)[C@@H]1O
Input pair: P , Q . Output: entry with lower Activity. Identify your pick by its label. Q

P = C=C1/C(=C\C=C2/CCC[C@]3(C)[C@@H]([C@H](C)C[C@@H]4OC(=O)C(=C)[C@@H]4C)CC[C@@H]23)C[C@@H](O)C[C@@H]1O
Q = C=C1/C(=C\C=C2/CCC[C@]3(C)[C@@H]([C@H](C)C[C@@H]4OC(=O)C(=C)[C@H]4CC)CC[C@@H]23)C[C@@H](O)[C@H](CCCO)[C@@H]1O
R = C=C1C(=O)O[C@H](C[C@@H](C)[C@H]2CC[C@H]3/C(=C/C=C4/C[C@@H](O)C[C@H](O)C4=C)CCC[C@]23C)[C@@H]1CCCC
Rank the 3 compounds: largest Activity first, smallest last. Answer format: list of labels, ordered as asked. Q, P, R

====

Molecular target: Vitamin D3 receptor (Homo sapiens) (UniProt P11473)
Assay: Antagonist activity against 1-alpha,25-dihydroxy vitamin D3-induced HL60 cell differentiation by NBT reduction method relative to TEI-9647
Type: functional, cell-based
Parameters: scale not given: the % may be the effect or the level left
Settings: HL-60
reportedEndpoint: Activity (%)

P = C=C1C(=O)O[C@H](C[C@@H](C)[C@H]2CC[C@H]3/C(=C/C=C4/C[C@@H](O)C[C@H](O)C4=C)CCC[C@]23C)[C@@H]1CCC
Q = C=C1/C(=C\C=C2/CCC[C@]3(C)[C@@H]([C@H](C)C[C@H]4OC(=O)C(=C)[C@@H]4CCCC)CC[C@@H]23)C[C@@H](O)[C@H](CCCO)[C@@H]1O
R = C=C1/C(=C\C=C2/CCC[C@]3(C)[C@@H]([C@H](C)C[C@H]4OC(=O)C(=C)[C@@H]4CCCC)CC[C@@H]23)C[C@@H](O)[C@H](C)[C@@H]1O
Ranking criterion: Activity, increasing numeric value. Items: as listed above. Thanks in advance for listing the labels in the requested order. R, P, Q

====

Molecular target: Vitamin D3 receptor (Homo sapiens) (UniProt P11473)
Assay: Antagonist activity against 1-alpha,25-dihydroxy vitamin D3-induced HL60 cell differentiation by NBT reduction method relative to TEI-9647
Assay type: functional, cell-based
Parameters: scale not given: the % may be the effect or the level left
Settings: HL-60
reportedEndpoint: Activity (%)

Some solved entries appear below for comparison.
// fetch Vitamin D3 receptor (Homo sapiens) (UniProt P11473) Activity for "C=C1/C(=C\C=C2/CCC[C@]3(C)[C@@H]([C@H](C)C[C@@H]4OC(=O)C(=C)[C@H]4CCC)CC[C@@H]23)C[C@@H](O)[C@H](C)[C@@H]1O" 2030

For Vitamin D3 receptor (Homo sapiens) (UniProt P11473), provide Activity of "C=C1/C(=C\C=C2/CCC[C@]3(C)[C@@H]([C@H](C)C[C@H]4OC(=O)C(=C)[C@@H]4CC(C)C)CC[C@@H]23)C[C@@H](O)[C@H](OCCCO)[C@@H]1O" please. 42

Could you share what Activity was measured for "C=C1/C(=C\C=C2/CCC[C@]3(C)[C@@H]([C@H](C)C[C@H]4OC(=O)C(=C)[C@@H]4CCC)CC[C@@H]23)C[C@@H](O)[C@H](C)[C@@H]1O" , tested on Vitamin D3 receptor (Homo sapiens) (UniProt P11473)? 12

Any idea what Activity came out for "C=C1C(=O)O[C@@H](C[C@@H](C)[C@H]2CC[C@H]3/C(=C/C=C4/C[C@@H](O)C[C@H](O)C4=C)CCC[C@]23C)[C@@H]1CC(C)C" on Vitamin D3 receptor (Homo sapiens) (UniProt P11473)? 40

# value lookup — system Vitamin D3 receptor (Homo sapiens) (UniProt P11473), readout Activity, item "C=C1/C(=C\C=C2/CCC[C@]3(C)[C@@H]([C@H](C)C[C@H]4OC(=O)C(=C)[C@@H]4CCC)CC[C@@H]23)C[C@@H](O)[C@H](CCCO)[C@@H]1O" 573

P = C=C1/C(=C\C=C2/CCC[C@]3(C)[C@@H]([C@H](C)C[C@@H]4OC(=O)C(=C)[C@@H]4CC)CC[C@@H]23)C[C@@H](O)[C@H](OCCCO)[C@@H]1O
Q = C=C1/C(=C\C=C2/CCC[C@]3(C)[C@@H]([C@H](C)C[C@@H]4OC(=O)C(=C)[C@H]4CC)CC[C@@H]23)C[C@@H](O)[C@H](OCCCO)[C@@H]1O
Hello, I am sorting some records. Could you say if P or Q has the smaller Activity value? Give the label under which the chosen entry appears. Q

P = C=C1/C(=C\C=C2/CCC[C@]3(C)[C@@H]([C@H](C)C[C@@H]4OC(=O)C(=C)[C@@H]4CCCC)CC[C@@H]23)C[C@@H](O)[C@H](OCCCO)[C@@H]1O
Q = C=C1/C(=C\C=C2/CCC[C@]3(C)[C@@H]([C@H](C)C[C@H]4OC(=O)C(=C)C4(C)C)CC[C@@H]23)C[C@@H](O)C[C@@H]1O
Between P and Q , which one shows the smaller Activity number? Answer by quoting the chosen item's label. Q
(Q: 16%, P: 1660%)
